B1: library; numbered along this chain (parent)
chain: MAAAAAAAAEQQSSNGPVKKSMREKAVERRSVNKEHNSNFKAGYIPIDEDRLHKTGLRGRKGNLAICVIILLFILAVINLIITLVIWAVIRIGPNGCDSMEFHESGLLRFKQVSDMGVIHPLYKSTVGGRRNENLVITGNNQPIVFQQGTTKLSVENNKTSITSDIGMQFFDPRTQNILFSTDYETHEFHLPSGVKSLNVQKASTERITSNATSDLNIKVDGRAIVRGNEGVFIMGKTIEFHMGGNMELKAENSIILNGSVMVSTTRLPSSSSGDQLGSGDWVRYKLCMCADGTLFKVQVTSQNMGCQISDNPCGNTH

Variants of: B1
Experiment: SGCB cell-surface expression functional score (HA stain, bin4 vs bin1, normalised to synonymous) (log10 ratio); higher = more cell-surface SGCB (functional)
readout-label: SGCB cell-surface expression functional score (log10)

Sample answers from the record:
T83M : 0.14
H187V : 0.03
N177G : 0.05
L52P : 0.32
I166Y : 0.18
A7W : 0.57
V300Y : -0.33
I92W : -2.43

Provide one value: measured SGCB cell-surface expression functional score (log10) of `F170G`
-0.91

Provide one value: measured SGCB cell-surface expression functional score (log10) of `N312R`
0.27

Provide one value: measured SGCB cell-surface expression functional score (log10) of `L72C`
0.42
